- assay protocol: In-vivo metabolism (pharmacokinetic) study in rats, oral / tail intravenous
- reported conditions: rat; Intravenous injection, 1 mg/kg, male SD rats, plasma
Property: log10 of AUC(0-t); scope: individual molecules
# values: log10(AUC(0-t)), units ng·h/mL

Worked cases, answers included:
>>> print(df.to_string())
                                   molecule  recorded_value
0  CC(=O)N1CCSC12CCN(C(=O)[C@@H](N)[C@@H](C)O)CC2.Cl [A-082]            3.84
1  CC(C)[C@H](N)C(=O)N1CC2(C1)N[C@H](C(N)=O)CS2.Cl [A-260]            3.16
2  C[C@@H](O)[C@H](N)C(=O)N1CC2(C1)N[C@H](C(N)=O)CS2.Cl [A-258]            3.62
3  C[C@@H](O)[C@H](N)C(=O)N1CCC2(CC1)N[C@H](C(N)=O)CS2.Cl [A-274]            3.21
4  CC(=O)N1CCSC12CN(C(=O)[C@@H](N)[C@@H](C)O)C2.Cl [A-066]            3.14
5  C[C@@H](O)[C@H](N)C(=O)N1CC2(C1)NCCS2.Cl [A-006]            4.22

Item: CC(C)C(=O)N1CCSC12CN(C(=O)[C@@H](N)[C@@H](C)O)C2.Cl [A-098] | log10 of AUC(0-t): 2.98
